I'd appreciate it if you could supply IC50 values for the items below.
target: UniProt:P04585; test: in vitro anti-HIV activity: inhibition of HIV-1 RT; assay type: biochemical; settings: in vitro
Numbers only, in µM.

C=C1CCC[C@H]2[C@](C)(CC3=C(O)C(=O)C=C(N)C3=O)[C@@H](C)CC[C@]12C :: 176

Dear reader, for each entry below, please note its IC50.
1. C=C1CCC[C@H]2[C@](C)(CC(=O)C3=C(OC)C(O)OC3=O)[C@@H](C)CC[C@]12C (stereo partly drawn)
2. C=C1CCC[C@H]2[C@](C)(CC3=C(O)C(=O)C=C(OC)C3=O)[C@@H](C)CC[C@]12C

Found:
1: 130; 2: 240
